Sourced from PubChem BioAssay (NCI)

Please respond with reported GI50 for every item in the list.
System: PC-3 prostate
Assay notes: NCI tumour cell line growth inhibition, 48 h

Here are 4 compounds together with their reported answers.
1) CC[C@H](C)C(=O)O[C@H]1CCC=C2C=C[C@H](C)[C@H](CC[C@@H]3C[C@@H](O)CC(=O)O3)[C@H]21: 1.7 µM
2) Cn1c2ccccc2c2c(=O)n(CCCC(=O)NCCc3cnc[nH]3)c3c(-c4ccccc4)nnn3c21: 9.01 µM
3) CCN(CC)CCNc1ccc(N=Nc2cnc3ccccc3c2)c2ccccc12: 1.28 µM
4) N#Cc1ccc(C(=O)c2cnn(-c3ccc(F)cc3)c2N)cc1: > 25 µM

Item: Oc1ccccc1/C=N\Nc1ccccc1 | GI50: 9.32 µM

----------
Tested on: NCI-H23 lung
Assay notes: NCI tumour cell line growth inhibition, 48 h
Parameter: TGI (µM)
One number for each entry, in µM.

# count of solved cases: 8
1) COc1ccc2c(c1)C(=O)/C(=C/c1cccc(OCC(=O)c3ccc([N+](=O)[O-])cc3)c1)CO2: 6.33
2) CN1CCN(C(=O)[C@@]2(C)CC[C@]3(C)CC[C@]4(C)C(=CC[C@@H]5[C@@]6(C)CC[C@H](OC(=O)c7cccnc7)C(C)(C)[C@@H]6CC[C@]54C)[C@@H]3C2)CC1: 3.39
3) Cn1c2ccccc2c(=NNc2ccc(S(=O)(=O)N=C(N)N)cc2)c2ccccc21: 26.9
4) COC1/C=C/OC2(C)Oc3c(C)c(O)c4c(O)c(c(/C=N/N(c5ccccc5)c5ccccc5)c(O)c4c3C2=O)NC(=O)C(C)=C/C=C/C(C)C(O)C(C)C(O)C(C)C(OC(C)=O)C1C (stereo not given): 8.98
5) N#Cc1c2c(c(Nc3cccc(C(F)(F)F)c3)n3c1nc1ccccc13)CCCC2: 89.2
6) CN(CCCCCCCCNc1ccnc2ccccc12)Cc1ccc(-c2ccc(-c3ccc(C#N)cc3)s2)cc1: 2.42
7) CCCCNP1(NCCCC)=NP(NCCCC)(NCCCC)=NP(NCCCC)(NCCCC)=NP(NCCCC)(NCCCC)=N1: 3.2
8) C[N+]1(C)C/C(=C\C=C\c2ccccc2)C(=O)/C(=C/C=C/c2ccccc2)C1: 34.4

Provide TGI for all items below, preserving their order.
1. O=C(CCN1CCCC1)Nc1ccc2c(Nc3ccc(Br)cc3)c3ccccc3nc2c1
2. C=C1C(=O)O[C@H]2C1C[C@H](O)/C(C)=C/CC[C@@]1(C)O[C@H]21 (stereo not given in full)

Outgoing:
[2.92, 37.5]

----------
Assignment: determine reported GI50 for the given compounds.
Tested on: OVCAR-4 ovarian
Assay notes: NCI tumour cell line growth inhibition, 48 h

Some solved entries appear below for comparison.
1. C#Cc1cccc(Nc2ncnc3ccc(-c4cnc(N)nc4)cc23)c1: 2.59 µM
2. Fc1ccc(-c2c(-c3ccncc3)[nH]c3cccnc23)cc1: > 25 µM
3. CCc1c2c(nc3ccc(OC(=O)OCc4ccc(B5OC(C)(C)C(C)(C)O5)cc4)cc13)-c1cc3c(c(=O)n1C2)COC(=O)[C@]3(O)CC: 0.21 µM
4. O=C(Nc1cccc(-n2ccc3c(NC(=O)c4ccccc4)nccc32)c1)c1ccc(Cl)c(Cl)c1: 0.611 µM

Next:
Memo: COc1cc(C(=O)c2cnc(-c3ccc4cc[nH]c4c3)[nH]2)cc(OC)c1OC , reported GI50: 0.993 µM
